Cited source: patent US11655235B2

- target_entity: Recombinant human FAP (Homo sapiens)
- Construct: purchased R&D systems
- Sequence (Q12884 1-760): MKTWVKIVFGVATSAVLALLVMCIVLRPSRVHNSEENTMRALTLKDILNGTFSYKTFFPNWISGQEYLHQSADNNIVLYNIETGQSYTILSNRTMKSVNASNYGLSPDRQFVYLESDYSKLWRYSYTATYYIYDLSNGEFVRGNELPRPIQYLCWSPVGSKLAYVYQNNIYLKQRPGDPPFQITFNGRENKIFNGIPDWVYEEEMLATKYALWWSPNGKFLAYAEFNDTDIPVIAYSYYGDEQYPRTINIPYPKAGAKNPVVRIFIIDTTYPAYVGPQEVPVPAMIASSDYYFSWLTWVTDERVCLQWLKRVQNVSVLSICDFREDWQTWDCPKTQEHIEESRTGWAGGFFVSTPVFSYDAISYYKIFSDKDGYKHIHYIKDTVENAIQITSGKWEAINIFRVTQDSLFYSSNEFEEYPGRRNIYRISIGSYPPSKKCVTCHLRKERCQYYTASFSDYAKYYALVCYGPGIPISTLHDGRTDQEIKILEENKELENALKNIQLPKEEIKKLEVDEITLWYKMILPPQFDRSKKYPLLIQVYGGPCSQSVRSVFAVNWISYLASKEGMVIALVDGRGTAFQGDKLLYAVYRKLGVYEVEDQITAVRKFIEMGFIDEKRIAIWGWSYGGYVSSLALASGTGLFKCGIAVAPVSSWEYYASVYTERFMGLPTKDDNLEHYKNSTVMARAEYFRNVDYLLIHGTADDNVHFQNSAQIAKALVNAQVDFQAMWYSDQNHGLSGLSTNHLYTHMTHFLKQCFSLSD
- assay_name: FAP FRET assay, FGF21-sequence FRET peptide substrate
- Type: biochemical
- measurement_context: FRET peptide with human FGF21 sequence, 6 μM, 37° C.
readout_type: IC50 (nM)

COc1ccnc2ccc(NC3CCN(CC(=O)N4C[C@@H](F)C[C@H]4C#N)CC3)cc12 [Example 382]    80

A = CN(c1ccc(C(F)(F)F)c2ncccc12)[C@H]1CCN(CC(=O)N2C[C@@H](F)C[C@H]2C#N)C1 [Example 159]
B = COc1cccc2cc(NC3CCN(CC(=O)N4C[C@@H](F)C[C@H]4C#N)CC3)cnc12 [Example 367]
C = N#C[C@@H]1C[C@H](F)CN1C(=O)CN1CCC(Nc2ccc(C(=O)Nc3cccnc3)c3ncccc23)CC1 [Example 405]
## Input Could you please sort these 3 entries by IC50 from high to low? # output: labels, in the requested order
## Output B, A, C

###

- target_entity: UniProt P27487
- assay_name: DPP4 inhibition, fluorogenic substrate H-Gly-Pro-AMC
- Type: biochemical
- Parameters: purchased R&D Systems
- measurement_context: read-out: hDPP4 inhibition % at 1 μM
readout_type: inhibition at 1 µM (%)

N#C[C@@H]1CCCN1C(=O)CN1CC[C@H](NC(=O)c2coc3cccc(O)c23)C1 [Example 48]    3.6
N#C[C@@H]1CCCN1C(=O)CN1CC[C@H](NC(=O)c2ccc3occc3c2)C1 [Example 56]    2.4

a = Cc1ccc2occ(C(=O)N[C@H]3CCN(CC(=O)N4CCC[C@H]4C#N)C3)c2c1 [Example 52]
b = Cc1cccc2c(C(=O)N[C@H]3CCN(CC(=O)N4CCC[C@H]4C#N)C3)coc12 [Example 45]
## Input Could you kindly indicate whether a or b has the higher inhibition at 1 µM value? Lab log: write the label of the selected item as the result.
## Output b

1 = N#C[C@@H]1CC(F)(F)CN1C(=O)CN1CC[C@H](Nc2cccc(-c3ccccc3)c2)C1 [Example 16]
2 = N#C[C@@H]1CCCN1C(=O)CN1CC[C@H](NC(=O)c2coc3cc(F)ccc23)C1 [Example 44]
## Input Could you kindly indicate whether 1 or 2 has the higher inhibition at 1 µM value? Lab log: write the label of the selected item as the result.
## Output 1
(1: 11%, 2: 1.4%)

###

- target_entity: DPP4 (Homo sapiens)
- Sequence (P27487 whole entry): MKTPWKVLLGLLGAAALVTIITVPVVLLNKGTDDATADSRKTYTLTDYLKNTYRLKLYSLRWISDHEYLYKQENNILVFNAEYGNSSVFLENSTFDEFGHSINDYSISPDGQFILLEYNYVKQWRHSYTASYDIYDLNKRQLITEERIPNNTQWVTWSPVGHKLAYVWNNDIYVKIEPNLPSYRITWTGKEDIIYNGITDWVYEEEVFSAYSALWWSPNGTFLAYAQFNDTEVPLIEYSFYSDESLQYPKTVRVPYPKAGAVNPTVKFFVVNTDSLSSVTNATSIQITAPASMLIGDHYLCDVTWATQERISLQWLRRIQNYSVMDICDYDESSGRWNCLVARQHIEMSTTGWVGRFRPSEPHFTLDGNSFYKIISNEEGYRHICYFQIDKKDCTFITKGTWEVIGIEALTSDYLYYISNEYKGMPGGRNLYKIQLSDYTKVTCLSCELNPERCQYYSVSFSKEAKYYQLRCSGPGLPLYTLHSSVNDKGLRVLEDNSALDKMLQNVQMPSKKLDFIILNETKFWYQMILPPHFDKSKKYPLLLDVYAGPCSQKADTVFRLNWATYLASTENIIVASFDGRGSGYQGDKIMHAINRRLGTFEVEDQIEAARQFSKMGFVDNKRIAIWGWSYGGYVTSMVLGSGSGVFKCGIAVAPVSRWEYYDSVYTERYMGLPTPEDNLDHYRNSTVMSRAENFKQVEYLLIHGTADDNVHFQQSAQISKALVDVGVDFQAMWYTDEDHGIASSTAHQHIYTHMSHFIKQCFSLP
- assay_name: DPP4 inhibition, fluorogenic substrate H-Gly-Pro-AMC
- Format: biochemical
- Design: purchased R&D Systems
- measurement_context: 25° C., H-Gly-Pro-AMC substrate
pIC50: −log10 of the molar value.
# pIC50 per record follows

Examples with answers:
N#C[C@@H]1CCCN1C(=O)CN1CC[C@@H](Nc2cncc3ccccc23)C1    < 6.00
N#C[C@@H]1C[C@H](F)CN1C(=O)CN1CCC(Nc2cc(F)cc3ncccc23)CC1    5.13
N#C[C@@H]1CCCN1C(=O)CN1CC[C@H](Nc2cncc3ccccc23)C1    < 6.00

Now, please, on to the next compound.
## Input # query: pIC50 of entry `N#C[C@@H]1CC(F)(F)CN1C(=O)CN1CC[C@H](Nc2cccc3ccoc23)C1`
## Output < 6.00

###

- target_entity: Recombinant human FAP (Homo sapiens)
- Construct: purchased R&D systems
- Sequence (Q12884 1-760): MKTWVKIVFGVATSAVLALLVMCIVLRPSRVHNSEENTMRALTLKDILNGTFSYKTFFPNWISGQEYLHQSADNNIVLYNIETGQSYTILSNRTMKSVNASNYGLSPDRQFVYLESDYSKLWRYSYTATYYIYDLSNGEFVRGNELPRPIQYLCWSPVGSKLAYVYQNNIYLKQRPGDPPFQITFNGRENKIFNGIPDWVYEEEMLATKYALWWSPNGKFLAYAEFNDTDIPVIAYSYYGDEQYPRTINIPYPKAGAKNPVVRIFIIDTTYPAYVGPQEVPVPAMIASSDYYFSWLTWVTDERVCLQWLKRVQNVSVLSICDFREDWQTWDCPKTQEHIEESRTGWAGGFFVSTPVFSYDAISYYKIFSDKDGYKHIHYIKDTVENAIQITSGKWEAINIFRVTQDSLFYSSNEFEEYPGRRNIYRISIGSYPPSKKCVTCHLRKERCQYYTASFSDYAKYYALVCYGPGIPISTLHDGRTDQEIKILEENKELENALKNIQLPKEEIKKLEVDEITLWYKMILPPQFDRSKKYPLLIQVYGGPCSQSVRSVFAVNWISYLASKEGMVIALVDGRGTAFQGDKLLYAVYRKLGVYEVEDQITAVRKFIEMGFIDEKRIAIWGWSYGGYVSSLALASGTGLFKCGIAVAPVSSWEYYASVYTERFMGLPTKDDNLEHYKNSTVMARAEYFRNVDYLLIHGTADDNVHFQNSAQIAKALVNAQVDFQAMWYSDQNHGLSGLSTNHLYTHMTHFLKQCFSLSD
- assay_name: FAP inhibition, fluorogenic substrate Z-Gly-Pro-AMC
- Assay type: biochemical
- measurement_context: recombinant human FAP, substrate Z-Gly-Pro-AMC
pIC50: −log10 of the molar value.
readout_type: pIC50

Examples with answers:
N#C[C@@H]1CCCN1C(=O)CN1CC[C@H](Nc2c(F)ccc3ncccc23)C1 [Example 241]    8.35
COc1ccc2nc(C)cc(OC3CCN(CC(=O)N4C[C@@H](F)C[C@H]4C#N)CC3)c2c1 [Example 424]    8.64
N#C[C@@H]1C[C@H](F)CN1C(=O)CN1CCC(Nc2ccc(F)c3ncccc23)CC1 [Example 330]    8.55
N#C[C@@H]1C[C@H](F)CN1C(=O)CN1CCC(Nc2cccc3ncc(F)cc23)CC1 [Example 349]    8.80
CN(c1cccc2cnccc12)C1CCN(CC(=O)N2CCC[C@H]2C#N)CC1 [Example 313]    7.13

1 = N#C[C@@H]1C[C@H](F)CN1C(=O)CN1CC[C@@H](Nc2cnc3ccccc3c2)C1 [Example 165]
2 = COc1cccc2c(OC3CCN(CC(=O)N4C[C@@H](F)C[C@H]4C#N)CC3)cc(C(F)(F)F)nc12 [Example 415]
3 = N#C[C@@H]1C[C@H](F)CN1C(=O)CN1CC[C@H](Nc2ccc(F)c3ncccc23)C1 [Example 264]
## Input Could you please sort these 3 entries by pIC50 from high to low? # output: labels, in the requested order
## Output 3, 1, 2

###

- target_entity: Recombinant human FAP (Homo sapiens, UniProt Q12884)
- Construct: purchased R&D systems
- assay_name: FAP FRET assay, FGF21-sequence FRET peptide substrate
- Assay type: biochemical
- measurement_context: FRET peptide with human FGF21 sequence, 6 μM, 37° C.
pIC50: −log10 of the molar value.
readout_type: pIC50

P = CCN(c1cnc2ccccc2c1)C1CCN(CC(=O)N2C[C@@H](F)C[C@H]2C#N)CC1 [Example 304]
Q = CN(c1ccc(F)c2ncccc12)[C@H]1CCN(CC(=O)N2C[C@@H](F)C[C@H]2C#N)C1 [Example 158]
## Input Could you kindly indicate whether P or Q has the higher pIC50 value? Lab log: write the label of the selected item as the result.
## Output Q

###

- target_entity: recombinant human DPP9 (Homo sapiens, UniProt Q86TI2)
- Construct: purchased R&D Systems
- Sequence (Q86TI2 whole entry): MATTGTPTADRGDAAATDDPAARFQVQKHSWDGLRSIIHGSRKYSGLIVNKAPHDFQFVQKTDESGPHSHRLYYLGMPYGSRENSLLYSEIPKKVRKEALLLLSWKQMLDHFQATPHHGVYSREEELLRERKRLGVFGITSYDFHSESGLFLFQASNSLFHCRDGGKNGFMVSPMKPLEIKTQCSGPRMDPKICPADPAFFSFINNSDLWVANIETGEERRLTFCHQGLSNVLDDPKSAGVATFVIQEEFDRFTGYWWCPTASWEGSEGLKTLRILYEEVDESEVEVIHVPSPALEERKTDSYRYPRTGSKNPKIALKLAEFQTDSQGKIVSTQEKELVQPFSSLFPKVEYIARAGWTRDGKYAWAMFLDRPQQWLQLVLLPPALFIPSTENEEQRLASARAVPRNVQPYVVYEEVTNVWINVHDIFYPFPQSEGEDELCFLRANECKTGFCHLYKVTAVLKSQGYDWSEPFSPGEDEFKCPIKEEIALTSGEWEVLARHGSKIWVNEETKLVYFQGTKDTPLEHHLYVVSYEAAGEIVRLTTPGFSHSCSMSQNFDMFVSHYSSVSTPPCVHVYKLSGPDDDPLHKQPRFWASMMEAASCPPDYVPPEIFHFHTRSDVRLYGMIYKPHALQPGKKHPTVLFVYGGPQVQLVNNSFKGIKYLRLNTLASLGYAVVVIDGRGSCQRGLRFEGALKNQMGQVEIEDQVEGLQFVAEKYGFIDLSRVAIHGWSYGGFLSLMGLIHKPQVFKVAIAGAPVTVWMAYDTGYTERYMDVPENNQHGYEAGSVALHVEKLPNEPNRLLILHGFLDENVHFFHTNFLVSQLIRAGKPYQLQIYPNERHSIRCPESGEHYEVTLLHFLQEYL
- assay_name: DPP9 inhibition, fluorogenic substrate H-Gly-Pro-AMC
- Format: biochemical
- measurement_context: recombinant human DPP9
readout_type: IC50 (µM)

Examples with answers:
COc1ccc2nc(C)cc(OC3CCN(CC(=O)N4C[C@@H](F)C[C@H]4C#N)CC3)c2c1    48.9
N#C[C@@H]1C[C@H](F)CN1C(=O)CN1CC[C@H](Nc2cc(F)c3ncccc3c2)C1    0.593
N#C[C@@H]1CCCN1C(=O)CN1CC[C@@H](Nc2cccc3ncc(Cl)cc23)C1    11.2
Cc1ccc2ncccc2c1N[C@@H]1CCN(CC(=O)N2C[C@@H](F)C[C@H]2C#N)C1    3.18
Cc1ccc(N[C@H]2CCN(CC(=O)N3C[C@@H](F)C[C@H]3C#N)C2)c2cccnc12    3.56

P = N#C[C@@H]1CCCN1C(=O)CN1CC[C@H](Nc2ccc(OCc3ccccc3)c3ncccc23)C1
Q = N#C[C@@H]1C[C@H](F)CN1C(=O)CN1CC[C@@H](Nc2cnc3ccccc3c2)C1
R = N#C[C@@H]1CCCN1C(=O)CN1CC[C@@H](Nc2ccc(OC(F)(F)F)c3ncccc23)C1
S = N#C[C@@H]1C[C@H](F)CN1C(=O)CN1CCC(Oc2cncc3ccccc23)CC1
T = N#C[C@@H]1CCCN1C(=O)CN1CC[C@H](Nc2ccc(C(=O)Nc3ccccn3)c3ncccc23)C1
## Input Could you please sort these 5 entries by IC50 from high to low? # output: labels, in the requested order
## Output S, R, Q, P, T
(S: 22.1 µM, R: 13.1 µM, Q: 7.55 µM, P: 3.68 µM, T: 1.25 µM)
